- Test system: HOP-92 NSCLC
- TEST METHOD NOTES: NCI-60 one-dose screen, 48 h
- CONDITION DESCRIPTION: 10 µM unless noted
The panel holds about 83,000 compounds, 20% with a hit somewhere; the sample as a whole holds those more often. Active and inactive are the calls of the source. The calls were made as follows: active = growth percent below 10; inactive = the rest.
Outcome (select one): 1 for active, -1 for inactive

Query: recorded result category for N#CC1C(=O)NC(c2ccccc2[N+](=O)[O-])c2sc3c(F)cccc3c21 (stereo unspecified) in this test
-1

Query: recorded result category for C=C(C)C1CCC2(C(=O)O)CCC3(C)C(CCC4C5(C)CCC(OC(=O)NCc6ccccc6)C(C)(C)C5CCC43C)C12 (stereo unspecified) in this test
1

Query: recorded result category for "Cc1cc(C)nc(SCC(=O)Nc2cccc(N=Cc3ccccc3O)c2)n1" in this test
-1

Query: recorded result category for "N#CCCc1c[nH]c2ccccc12" in this test
-1

Query: recorded result category for "COc1c(B(O)O)cccc1-c1nc2ccc3[nH]ncc3c2c2c1CCC2" in this test
-1

Data origin: PubChem BioAssay (NCI)
